# Test system: MET;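 further: KINOMEscan kinase panel screen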
# CONDITION_LABEL: concentration: 1 μM, replicates: in singlicate; n = 1
%Inh: recorded values
MEASURED_QUANTITY: %Inh (%)

- O=C1NC(=O)C(N2CCc3ccccc32)=C1c1ccccc1Cl: 17
- COc1ccc(Nc2nccc(NCCNC(=O)Nc3ccccc3F)n2)cc1: 0
- CC1=C(C(=O)Nc2cc3cn[nH]c3cc2F)C(c2ccc(C(F)(F)F)cc2)CC(=O)N1 (centres unmarked): 0
- CC(C)(C)c1ccc(C(=O)Nc2cn3cc(Cl)ccc3n2)cc1: 0
- CS(=O)(=O)c1ccc(-c2nc3n(c2-c2ccncc2)CCC3)cc1: 0
